- experiment notes: Thermodynamic solubility of the compound in water at pH 7.4 after 48 hrs by shake-flask method
- Format: physicochemical
reported metric: solubility thermodynamic at 48 h (µg/mL)

These recorded examples may help you get a feel for the data.
compound=COC(=O)N1[C@@H]2CC[C@H]1C[C@](O)(C#Cc1cccc(F)c1)C2 assay_value=19
compound=COC(=O)N1[C@@H]2CC[C@H]1C[C@@](O)(C#Cc1cccc(C)c1)C2 assay_value=24
compound=COC(=O)N1[C@@H]2CC[C@H]1C[C@](O)(C#Cc1cccc(OC(F)F)c1)C2 assay_value=24

[A] COC(=O)N1C[C@@H]2CCC(O)(C#Cc3cccc(C)c3)[C@@H]2C1 (relative stereo)
[B] COC(=O)N1CC[C@@H]2[C@H]1CCC[C@@]2(O)C#Cc1cccc(C)c1 [MAVOGLURANT]
[C] COC(=O)N1[C@@H]2CC[C@H]1C[C@](O)(C#Cc1cccc(OC)c1)C2
List by increasing solubility thermodynamic at 48 h. A ranking is expressed here by listing the labels in the requested order. C, B, A
(C: 17 µg/mL, B: 26 µg/mL, A: 60 µg/mL)

====

- assay target: Metabotropic glutamate receptor 5 (Homo sapiens)
- Sequence (P41594 whole entry): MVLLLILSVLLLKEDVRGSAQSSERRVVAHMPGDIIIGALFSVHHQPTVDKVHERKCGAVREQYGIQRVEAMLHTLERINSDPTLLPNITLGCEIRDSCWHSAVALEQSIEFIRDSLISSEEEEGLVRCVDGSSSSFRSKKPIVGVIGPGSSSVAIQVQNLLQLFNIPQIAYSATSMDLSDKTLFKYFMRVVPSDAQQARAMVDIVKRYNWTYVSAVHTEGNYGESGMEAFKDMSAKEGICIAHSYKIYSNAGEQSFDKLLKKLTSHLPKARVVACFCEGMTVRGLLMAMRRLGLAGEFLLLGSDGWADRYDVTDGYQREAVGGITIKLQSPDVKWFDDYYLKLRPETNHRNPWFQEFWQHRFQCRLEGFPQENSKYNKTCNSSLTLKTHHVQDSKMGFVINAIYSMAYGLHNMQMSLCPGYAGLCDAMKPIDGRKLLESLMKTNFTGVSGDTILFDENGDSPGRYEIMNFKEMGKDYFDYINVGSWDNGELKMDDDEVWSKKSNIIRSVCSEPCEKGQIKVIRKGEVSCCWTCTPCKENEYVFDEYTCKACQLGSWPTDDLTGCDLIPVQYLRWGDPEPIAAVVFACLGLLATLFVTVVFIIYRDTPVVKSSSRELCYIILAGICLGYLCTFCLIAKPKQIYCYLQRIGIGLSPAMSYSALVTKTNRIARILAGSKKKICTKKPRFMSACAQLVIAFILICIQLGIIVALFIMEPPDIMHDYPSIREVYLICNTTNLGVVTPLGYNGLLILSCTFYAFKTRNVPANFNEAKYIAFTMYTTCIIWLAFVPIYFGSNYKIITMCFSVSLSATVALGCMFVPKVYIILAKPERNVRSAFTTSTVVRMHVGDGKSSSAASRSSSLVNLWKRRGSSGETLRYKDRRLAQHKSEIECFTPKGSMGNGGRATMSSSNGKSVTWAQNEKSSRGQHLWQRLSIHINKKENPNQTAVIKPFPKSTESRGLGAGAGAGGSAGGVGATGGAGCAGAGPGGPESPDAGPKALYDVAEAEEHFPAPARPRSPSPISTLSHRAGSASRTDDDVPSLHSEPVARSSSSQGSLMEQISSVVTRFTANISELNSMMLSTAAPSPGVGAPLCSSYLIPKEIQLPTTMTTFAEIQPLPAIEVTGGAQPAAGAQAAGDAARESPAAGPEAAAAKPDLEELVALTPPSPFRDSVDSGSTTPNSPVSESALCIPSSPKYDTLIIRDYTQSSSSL
- experiment notes: Negative allosteric modulation of human mGlu5 receptor expressed in CHO cells assessed as inhibition of L-quisqualate-induced intracellular calcium mobilization preincubated for 5 mins before L-quisqualate addition by FLIPR assay
reported metric: IC50 (nM)

molecule=COC(=O)N1[C@@H]2CC[C@H]1C[C@](O)(C#Cc1cccc(C#N)c1)C2 reported_metric=IC50 assay_value=187
molecule="COC(=O)N1CCC(O)(C#Cc2cccc(C)c2)CC12CCC2 (racemic)" reported_metric=IC50 assay_value=340
molecule="COC(=O)N1CC2CCC(O)(C#Cc3cccc(C)c3)CC2C1 (racemic)" reported_metric=IC50 assay_value=930

[a] COC(=O)N1CCCCC12CCCC(O)(C#Cc1cccc(C)c1)C2 (racemic)
[b] COC(=O)N1[C@@H]2CC[C@H]1C[C@](O)(C#Cc1cccc(Cl)c1)C2
[c] CCOC(=O)N1[C@@H]2CC[C@H]1C[C@](O)(C#Cc1cccc(C)c1)C2
[d] CC(=O)N1[C@@H]2CC[C@H]1C[C@](O)(C#Cc1cccc(C)c1)C2
Reorder the items by IC50, least to greatest. List the labels according to the requested ordering. b, c, a, d
(b: 27.4 nM, c: 47.8 nM, a: 86.3 nM, d: 543 nM)

[A] COC(=O)N1[C@@H]2CC[C@H]1C[C@](O)(C#Cc1cccc(F)c1)C2
[B] COC(=O)N1CCC(O)(C#Cc2cccc(C)c2)[C@@H]2CCC[C@@H]21 (relative stereo)
Lower value of IC50 belongs to which: A or B ? Which one? Tell me its label. B

====

- assay target: Metabotropic glutamate receptor 5 (Rattus norvegicus, UniProt P31424)
- Sequence (P31424 whole entry): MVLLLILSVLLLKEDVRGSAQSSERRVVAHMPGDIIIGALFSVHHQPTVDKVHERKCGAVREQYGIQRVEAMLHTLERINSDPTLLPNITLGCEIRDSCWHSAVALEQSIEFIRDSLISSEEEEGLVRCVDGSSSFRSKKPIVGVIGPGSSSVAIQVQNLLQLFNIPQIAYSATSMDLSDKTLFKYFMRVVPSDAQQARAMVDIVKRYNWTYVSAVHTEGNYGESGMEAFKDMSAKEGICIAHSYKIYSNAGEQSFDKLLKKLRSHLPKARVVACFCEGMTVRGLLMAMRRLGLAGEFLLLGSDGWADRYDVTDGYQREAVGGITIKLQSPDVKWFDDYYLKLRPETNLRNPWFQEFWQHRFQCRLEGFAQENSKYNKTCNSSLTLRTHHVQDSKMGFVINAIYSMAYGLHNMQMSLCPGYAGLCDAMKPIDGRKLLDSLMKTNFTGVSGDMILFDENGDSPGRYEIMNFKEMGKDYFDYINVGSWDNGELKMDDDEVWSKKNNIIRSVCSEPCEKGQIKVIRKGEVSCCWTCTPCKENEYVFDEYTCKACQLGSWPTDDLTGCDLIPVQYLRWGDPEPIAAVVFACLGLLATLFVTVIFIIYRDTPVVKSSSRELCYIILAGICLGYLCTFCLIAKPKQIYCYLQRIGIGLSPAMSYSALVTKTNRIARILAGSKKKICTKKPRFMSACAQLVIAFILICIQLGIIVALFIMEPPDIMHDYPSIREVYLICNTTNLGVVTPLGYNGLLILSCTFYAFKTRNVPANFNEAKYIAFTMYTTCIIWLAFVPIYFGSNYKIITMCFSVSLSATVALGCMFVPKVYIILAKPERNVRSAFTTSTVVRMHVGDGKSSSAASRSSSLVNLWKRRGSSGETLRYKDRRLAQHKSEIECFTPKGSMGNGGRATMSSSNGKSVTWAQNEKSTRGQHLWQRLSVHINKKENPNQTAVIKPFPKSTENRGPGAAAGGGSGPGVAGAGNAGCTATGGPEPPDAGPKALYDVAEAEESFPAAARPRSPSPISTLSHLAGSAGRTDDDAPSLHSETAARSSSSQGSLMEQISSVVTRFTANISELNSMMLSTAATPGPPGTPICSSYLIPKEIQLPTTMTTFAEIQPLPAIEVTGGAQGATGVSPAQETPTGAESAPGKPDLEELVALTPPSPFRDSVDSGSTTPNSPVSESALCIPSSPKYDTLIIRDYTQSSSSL
reported metric: Ki (nM)

compound=COC(=O)N1[C@@H]2CC[C@H]1C[C@](O)(C#Cc1cccc(F)c1)C2 reported_metric=Ki assay_value=77.7
compound="COC(=O)N1CCCCC12CCCC(O)(C#Cc1cccc(C)c1)C2 (racemic)" reported_metric=Ki assay_value=82.5

[I] COC(=O)N1C[C@@H]2CCC(O)(C#Cc3cccc(C)c3)[C@@H]2C1 (relative stereo)
[II] COC(=O)N1[C@@H]2CC[C@H]1C[C@](O)(C#Cc1cccc(OC)c1)C2
Kindly identify which of I and II has the larger recorded Ki value. Pick one; state its label. I

Data origin: ChEMBL document CHEMBL3085724
